What inhibition at 1 µM was measured for each of the following?
assay-target: L-type voltage-dependent Ca2+ channel (Homo sapiens, UniProt O60840+Q01668+Q13698+Q13936)
measurement-notes: Inhibition of L-type voltage-dependent Ca2+ channel at 1 uM
# value in %; strip the unit string

Check the records and state inhibition at 1 µM for CCOC(=O)C1=C(C)NC(C)=C(C(=O)OC)C1c1ccco1 (stereo not given)
86.9

Report inhibition at 1 µM for COC(=O)C1=C(C)N(C)C(C)=C(C(=O)OC)C1c1cccc(Cl)c1Cl
42.2

Look up and state reported inhibition at 1 µM for CCOC(=O)C1=C(C)NC(C)=C(C(=O)OCC)C1c1ccccc1Cl
100

Name the recorded inhibition at 1 µM of the compound listed here: COc1cc(C2C(C(=O)OCc3ccccc3)=C(C)NC(C)=C2C(=O)OCc2ccccc2)ccc1O
44.9

Using the record for COC(=O)C1=C(C)NC(C)=C(C(=O)OC)C1c1ccccc1Cl , state its measured inhibition at 1 µM.
100

Supply inhibition at 1 µM value. Item: COC(=O)C1=C(C)NC(C)=C(C(=O)OC)C1c1ccc(-c2cccc(Cl)c2Cl)o1
10.3

Name the recorded inhibition at 1 µM of the item CCOC(=O)C1=C(C)NC(C)=C(C(=O)OCC)C1c1ccc(O)c(OCC)c1 in your answer.
22.8

Item COC(=O)C1=C(C)N(c2ccc(N(C)C)cc2)C(C)=C(C(=O)OC)C1c1ccc(Cl)cc1 : provide inhibition at 1 µM
12.9

Quote inhibition at 1 µM reported for CCOC(=O)C1=C(C)N=C(C)/C(=C(/O)OCC)C1/C=C/c1ccccc1OC (stereo not given) please.
27.6

Specify inhibition at 1 µM for CCOC(=O)C1=C(C)NC(C)=C(C(=O)OCC)C1c1c(F)c(F)c(F)c(F)c1F and stop.
100

* * *

assay-target: L-type voltage-dependent Ca2+ channel (Homo sapiens, UniProt O60840+Q01668+Q13698+Q13936)
measurement-notes: Inhibition of L-type voltage-dependent Ca2+ channel at 1 uM
parameter-measured: inhibition at 1 µM (%)
State just the number; it will be interpreted in %.

Tell me measured inhibition at 1 µM for CCOC(=O)C1=C(C)NC(C)=C(C(=O)OCC)C1c1ccc(OC)c(OC)c1 please.
100

Name the recorded inhibition at 1 µM of the item C=CCOC(=O)C1=C(C)NC(C)=C(C(=O)OCC=C)C1c1ccc(O)c(OCC)c1 in your answer.
63.6

Identify measured inhibition at 1 µM associated with CCOC(=O)C1=C(C)NC(C)=C(C(=O)OCC)C1c1c(Cl)cccc1Cl
100

Please indicate inhibition at 1 µM recorded for C=CCO/C(O)=C1\C(C)=NC(SCC)=C(C#N)C1c1ccc(Cl)cc1 (stereo not given)
29.7

# return recorded inhibition at 1 µM for input CCOC(=O)C1=C(C)NC(C)=C(C(=O)OCC)C1c1ccc([N+](=O)[O-])cc1
47.4

Specify reported inhibition at 1 µM for the compound shown: CCOC(=O)C1=C(C)NC(C)=C(C(=O)OCC)C1c1c(F)cccc1Cl
100

Hello, please tell me recorded inhibition at 1 µM for this one: CCOC(=O)C1=C(C)N=C(C)/C(=C(/O)OCC)C1/C=C/c1ccccc1 (stereo not given)
46.3

Retrieve inhibition at 1 µM measured for COC(=O)C1=C(C)N=C(C)/C(=C(/O)OC)C1/C=C/c1ccccc1 (stereo not given) and print it.
18.8

Please supply the value of reported inhibition at 1 µM for the item COC(=O)C1=C(C)NC(C)=C(C(=O)OC)C1c1ccc(N(C)C)cc1
4.1

Look up and state reported inhibition at 1 µM for COc1ccc(C2C(C(=O)OC(C)C)=C(C)NC(C)=C2C(=O)OC(C)C)cc1OC
22.1

Please report the measured inhibition at 1 µM for COC(=O)C1=C(C)N(C)C(C)=C(C(=O)OC)C1c1cccc(Cl)c1
40.2

Return inhibition at 1 µM for the following compound: CCc1ccc(C2C(C(=O)OC)=C(C)NC(C)=C2C(=O)OC)cc1
37.4

For the compound C=CCOC(=O)C1=C(C)NC(C)=C(C(=O)OCC=C)C1c1cccc([N+](=O)[O-])c1 , give its reported inhibition at 1 µM.
100

Please report inhibition at 1 µM for the following compound: CCOC(=O)C1=C(C)NC(C)=C(C(=O)OCC)C1c1ccc(N(C)C)cc1
30.4

Determine from records and report inhibition at 1 µM for CCOC(=O)C1=C(C)NC(SC)=C(C#N)C1c1ccccc1 (stereo not given)
23.4

Consider the compound C=CCOC(=O)C1=C(C)NC(C)=C(C(=O)OCC=C)C1c1ccc(C(C)(C)C)cc1 and give its recorded inhibition at 1 µM.
5.9

Supply measured inhibition at 1 µM of C=CCOC(=O)C1=C(C)NC(C)=C(C(=O)OCC=C)C1c1ccc(C(=O)OC)cc1 in your reply.
7.8

Give inhibition at 1 µM for the following compound: C=CCOC(=O)C1=C(C)NC(C)=C(C(=O)OCC=C)C1c1ccc(N(C)C)cc1
23.9

Please look at this compound and report its inhibition at 1 µM: CCOC(=O)C1=C(C)NC(C)=C(C(=O)OC)C1c1ccc(C)o1 (stereo not given)
37.6

Supply reported inhibition at 1 µM belonging to this compound: COC(=O)C1=CNC=C(C(=O)OC)C1c1ccc(Cl)c(Cl)c1
17.1

State its inhibition at 1 µM: CCOC(=O)C1=C(C)NC(C)=C(C(=O)OCC)C1c1cccc(Br)c1
100

Output inhibition at 1 µM of COC(=O)C1=C(C)NC(C)=C(C(=O)OC)C1c1ccc(OCc2ccccc2)cc1
22.5

Name the recorded inhibition at 1 µM of the item C=CCOC(=O)C1=C(C)NC(C)=C(C(=O)OCC=C)C1c1ccc(Cl)cc1Cl in your answer.
81

Recall and state the measured inhibition at 1 µM for C=CCOC(=O)C1=C(C)NC(C)=C(C(=O)OCC=C)C1c1ccc(I)cc1 .
37.5

Query inhibition at 1 µM for C=CCOC(=O)C1=C(C)NC(C)=C(C(=O)OCC=C)C1c1ccc(OC)c(OC)c1
28.7

Supply inhibition at 1 µM value. Item: CCOC(=O)C1=C(C)NC(C)=C(C(=O)OC)C1c1ccc([N+](=O)[O-])cc1 (stereo not given)
79.2

Identify inhibition at 1 µM associated with the compound COC(=O)C1=C(C)NC(C)=C(C(=O)OC)C1c1ccc(C(C)C)cc1
54.9

Quick one: give measured inhibition at 1 µM for COC(=O)C1=C(C)N(C)C(C)=C(C(=O)OC)C1c1ccc(-c2ccccc2)cc1
23.5

Query inhibition at 1 µM for C=CCOC(=O)C1=C(C)NC(SC)=C(C#N)C1c1ccc(Cl)cc1 (stereo not given)
36.7

Assign inhibition at 1 µM to the following record: C=CCOC(=O)C1=C(C)NC(C)=C(C(=O)OCC=C)C1c1cccc(Oc2ccccc2)c1
48.2

Return inhibition at 1 µM for the following compound: CCOC(=O)C1=C(C)NC(C)=C(C(=O)OC)C1c1cccc([N+](=O)[O-])c1 (stereo not given)
100

Return value of inhibition at 1 µM for input COC(=O)C1=C(C)NC(C)=C(C(=O)OCCCBr)C1c1cccc([N+](=O)[O-])c1 (stereo not given) , no commentary.
100

Return value of inhibition at 1 µM for input C=CCOC(=O)C1=C(C)NC(C)=C(C(=O)OCC=C)C1c1ccccc1Cl , no commentary.
100

Entry COC(=O)C1=C(C)NC(C)=C(C(=O)OC)C1c1ccc(-c2ccc(Cl)c(Cl)c2)o1 needs its inhibition at 1 µM filled in; supply it.
8.3

Please report inhibition at 1 µM for the following compound: COCCOC(=O)C1=C(C)NC(C)=C(C(=O)OCCOC)C1c1ccc(-c2cccc(Cl)c2Cl)o1
44.9

State its inhibition at 1 µM for this compound: CCN(CC)c1ccc(C2C(C(=O)OC)=C(C)NC(C)=C2C(=O)OC)cc1
7.1

Please give the documented inhibition at 1 µM of CCOC(=O)C1=C(C)NC(C)=C(C(=O)OCC)C1c1ccc(Cl)cc1
93.3

Provide one value: measured inhibition at 1 µM of CC1=C(C(=O)OC(C)C)C(c2ccc(Cl)cc2)C(C(=O)OC(C)C)=C(C)N1
50.5

// Input: COC(=O)C1=C(C)NC(C)=C(C(=O)OC)C1c1ccc(Cl)cc1Cl . Output its inhibition at 1 µM only.
100

Query inhibition at 1 µM for CCOC(=O)C1=C(C)NC(C)=C(C(=O)OCC)C1c1ccc(OC)cc1OC
41.8

Values were extracted from ChEMBL document CHEMBL2062363.
